System: HCT116 MTAP null cells
Test: HCT116 proliferation assay, MTAP null cells (CellTiter-Glo, 6 days)
Type: cell-based
Conditions: HCT116-MTAP null, 144 h, read-out: Protif_ HCT116-MTAP null IC50
pIC50: −log10 of the molar value.
List of pIC50 values.
readout.kind: pIC50

compound=CO[C@@H]1Cc2ccccc2[C@H]1N(Cc1ccc(C(F)(F)F)cn1)C(=O)c1ccc2nc(N)c(C)cc2c1 measured_value=6.84
compound="Cc1cc2cc(C(=O)N(Cc3ccc(C(F)(F)F)cn3)C3CCc4[nH]cnc4C3)ccc2nc1N (centres unmarked)" measured_value=6.07
compound=Cc1nc(CN(C(=O)c2ccc3nc(N)c(Br)cc3c2)[C@H](C)c2ncccn2)ccc1C#N measured_value=6.51
compound=Nc1nc2ccc(C(=O)N(Cc3ccc(Br)nn3)[C@@H]3CCCn4ncnc43)cc2cc1Br measured_value=6.47
compound=Cc1cc2cc(C(=O)N(Cc3ccc(Br)nn3)[C@@H]3CCCn4ncnc43)c(F)cc2nc1N measured_value=6.50

----------
Tested on: HCT116 WT cells
Assay: HCT116 proliferation assay, WT cells (CellTiter-Glo, 6 days)
Assay type: cell-based
Settings: Homo sapiens, HCT-116, 144 h, read-out: Prolif_HCT116-WT IC50
readout.kind: IC50

compound=Cc1cc2cc(C(=O)N(Cc3ccc(C(F)(F)F)cn3)[C@H](C)c3cnccn3)cnc2nc1N measured_value="> 10 µM"
compound=Cc1cc2cc(C(=O)N(Cc3ccc(C(F)(F)F)cn3)Cc3ncc(F)cn3)ccc2nc1N measured_value="> 10 µM"
compound=Cc1nc(CN(C(=O)c2ccc3nc(N)c(Br)cc3c2)[C@H](C)c2ncccn2)ccc1C#N measured_value="> 10 µM"
compound="Cc1cc2cc(C(=O)N(Cc3ccc(C(F)(F)F)cn3)CC3CCn4ccnc4C3)ccc2nc1N (centres unmarked)" measured_value="> 1 µM"
compound=Cc1cc2cc(C(=O)N(Cc3ccc(C(C)(C)O)cn3)[C@H](C)c3ncccn3)ccc2nc1N measured_value="> 10 µM"

----------
Test system: HCT116 MTAP null cells
Assay: HCT116 proliferation assay, MTAP null cells (CellTiter-Glo, 6 days)
Format: cell-based
Details: HCT116-MTAP null, 144 h, read-out: Protif_ HCT116-MTAP null IC50
readout.kind: IC50 (nM)

molecule="Cc1cc2cc(C(=O)N(Cc3cccc(-n4cncn4)c3)Cc3ccc(C(F)(F)F)cn3)ccc2nc1N [Example 649]" measured_value=310
molecule="Cc1cc2cc(C(=O)N(Cc3ccc(C(F)(F)F)cn3)[C@@H]3CC(F)(F)C[C@H]3O)ccc2nc1N (single isomer, unassigned) [Example 780]" measured_value=144
molecule="C[C@H](c1ncccc1F)N(Cc1ccc(Br)nn1)C(=O)c1ccc2nc(N)c(Cl)cc2c1 [Example 739]" measured_value=355
molecule="C[C@H](c1ncccn1)N(Cc1ccc(Br)nn1)C(=O)c1ccc2nc(N)c(I)cc2c1 [Example 767]" measured_value=56
molecule="Cc1cc2cc(C(=O)N(Cc3ccc(C(F)F)cn3)[C@H](C)c3cnn(C)n3)ccc2nc1N (single isomer, unassigned) [Example 532]" measured_value=45

----------
Target: PRMT5/MEP50 (Homo sapiens, UniProt O14744)
Sequence (O14744 whole entry): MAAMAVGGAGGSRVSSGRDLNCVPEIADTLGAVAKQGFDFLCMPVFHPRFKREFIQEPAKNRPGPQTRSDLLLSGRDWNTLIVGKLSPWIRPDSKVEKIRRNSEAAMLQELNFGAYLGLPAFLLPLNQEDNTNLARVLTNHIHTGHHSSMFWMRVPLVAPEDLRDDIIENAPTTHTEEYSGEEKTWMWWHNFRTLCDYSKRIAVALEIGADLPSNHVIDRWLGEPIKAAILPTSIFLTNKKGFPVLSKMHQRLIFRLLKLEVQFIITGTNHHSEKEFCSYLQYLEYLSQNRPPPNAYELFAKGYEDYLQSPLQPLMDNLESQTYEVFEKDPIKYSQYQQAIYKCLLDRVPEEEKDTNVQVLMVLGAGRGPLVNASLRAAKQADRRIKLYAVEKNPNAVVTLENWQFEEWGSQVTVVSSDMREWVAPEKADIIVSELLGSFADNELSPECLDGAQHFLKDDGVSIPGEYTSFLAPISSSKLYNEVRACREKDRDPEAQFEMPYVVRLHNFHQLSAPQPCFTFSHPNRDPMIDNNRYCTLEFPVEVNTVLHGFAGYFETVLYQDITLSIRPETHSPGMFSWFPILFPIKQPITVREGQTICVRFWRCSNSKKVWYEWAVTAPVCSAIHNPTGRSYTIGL
Sequence (Q9BQA1 whole entry partner): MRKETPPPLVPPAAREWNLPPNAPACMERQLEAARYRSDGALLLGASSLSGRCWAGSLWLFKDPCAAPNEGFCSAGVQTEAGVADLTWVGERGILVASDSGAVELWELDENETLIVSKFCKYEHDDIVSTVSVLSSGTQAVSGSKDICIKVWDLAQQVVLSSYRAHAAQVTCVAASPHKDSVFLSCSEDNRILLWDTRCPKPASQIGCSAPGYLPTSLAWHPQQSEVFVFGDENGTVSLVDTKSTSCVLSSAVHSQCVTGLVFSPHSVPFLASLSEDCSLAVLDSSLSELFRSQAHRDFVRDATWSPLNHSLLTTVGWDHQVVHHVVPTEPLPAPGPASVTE
Assay: MTase-Glo methyl transferase assay, Method A (Histone H4 peptide, 1 µM MTA, 24 h pre-incubation)
Format: biochemical
Set-up: made in house
Conditions: read-out: PRMT5 MTase Glo Ki (nM, Meth. A)
readout.kind: log10(Ki) (log10 of the value in nM)

compound="Cc1cc2cc(C(=O)N(Cc3ccc(C(F)(F)F)cn3)CC(C)C)c(Cl)cc2nc1N [Example 436]" measured_value=-0.85
compound="Cc1cc2cc(C(=O)N(Cc3cnc(C#N)cn3)[C@H](C)c3ncccn3)ccc2nc1N [Example 553]" measured_value=-0.44
compound="C[C@H](c1ncccc1F)N(Cc1ccc(Br)nn1)C(=O)c1cnc2nc(N)c(Br)cc2c1 [Example 424]" measured_value=-0.21
compound="Cc1cc2cc(C(=O)N(Cc3ccc(C4=CCN(C(=O)OC(C)(C)C)CC4)cn3)[C@H](C)c3ncccn3)ccc2nc1N [Example 547]" measured_value=-1.70
compound="C[C@H](c1ncccn1)N(Cc1ccc(C(F)(F)F)nn1)C(=O)c1cnc2nc(N)c(Br)cc2c1 (single isomer, unassigned) [Example 444]" measured_value=-0.82
compound="Cc1cc2cc(C(=O)N(Cc3ccc(C(F)(F)F)cc3)Cc3ncccc3F)ccc2nc1N [Example 328]" measured_value=-0.39

----------
Target: PRMT5/MEP50 (Homo sapiens, UniProt O14744)
Experiment: MTase-Glo methyl transferase assay, Method A (Histone H4 peptide, 1 µM MTA, 24 h pre-incubation)
Format: biochemical
Set-up: made in house
Settings: read-out: PRMT5 MTase Glo Ki (nM, Meth. A)
readout.kind: Ki (nM)

compound="Cc1cc2cc(C(=O)N(Cc3ccc(Br)cn3)[C@H](C)c3ncccc3Cl)ccc2nc1N [Example 394]" readout_kind=Ki measured_value=0.12
compound="Nc1nc2ncc(C(=O)N(Cc3ccc(C(F)(F)F)cn3)Cc3ncccc3F)cc2cc1Br [Example 321]" readout_kind=Ki measured_value=0.15
compound="COc1ccc(CN(C(=O)c2cc3cc(C)c(N)nc3cc2F)[C@@H](C)c2ncccn2)nn1 (single isomer, unassigned) [Example 480]" readout_kind=Ki measured_value=1.49
compound="Cc1cc2cc(C(=O)N(Cc3ccc(C(F)(F)F)cn3)Cc3ncccc3F)c(F)cc2nc1N [Example 310]" readout_kind=Ki measured_value=0.29
compound="C[C@H](c1ncccn1)N(Cc1ccc(C2=CCOCC2)nn1)C(=O)c1ccc2nc(N)c(Cl)cc2c1 [Example 334]" readout_kind=Ki measured_value=0.34
compound="Cc1cc2cc(C(=O)N(Cc3ccc(C(F)(F)F)cn3)Cc3ccnc4[nH]ccc34)ccc2nc1N [Example 356]" readout_kind=Ki measured_value=0.02
compound="Cc1cc2cc(C(=O)N(Cc3ccc(C(F)(F)F)cn3)Cc3ncc(Cl)cc3F)ccc2nc1N [Example 304]" readout_kind=Ki measured_value=0.11
compound="Cc1cc2cc(C(=O)N(Cc3ncc(C(F)(F)F)cc3F)CC(C)C)ccc2nc1N [Example 308]" readout_kind=Ki measured_value=2.34
compound="Cc1cc2cc(C(=O)N(Cc3ccc(C(F)(F)F)cn3)[C@@H]3CCCN(C)C3=O)ccc2nc1N (single isomer, unassigned) [Example 460]" readout_kind=Ki measured_value=1.82
compound="Cc1cc2cc(C(=O)N(Cc3ccc(C(F)(F)F)cn3)[C@@H](C)c3ncn(C)n3)c(F)cc2nc1N (single isomer, unassigned) [Example 498]" readout_kind=Ki measured_value=2.43
compound="Cc1cc2cc(C(=O)N(Cc3ccc(C(F)(F)F)cn3)[C@@H]3CCOc4cccnc43)ccc2nc1N (single isomer, unassigned) [Example 456]" readout_kind=Ki measured_value=0.3
compound="Cc1cc2cc(C(=O)N(Cc3ccc(C#N)cn3)[C@H](C)c3ncccc3F)c(F)cc2nc1N [Example 353]" readout_kind=Ki measured_value=0.02
compound="Cc1cc2cc(C(=O)N(Cc3ccc(C(F)(F)F)cn3)Cc3cnc(N)s3)ccc2nc1N [Example 305]" readout_kind=Ki measured_value=15.1
compound="Cc1cc2cc(C(=O)N(Cc3ccc(C(F)(F)F)cn3)[C@H](C)c3ncccn3)ncc2nc1N [Example 374]" readout_kind=Ki measured_value=0.48
compound="Cc1cc2cc(C(=O)N(Cc3ccc(C#N)cn3)CC3CC3)c(F)cc2nc1N [Example 307]" readout_kind=Ki measured_value=1.88
compound="Cc1cc2cc(C(=O)N(Cc3ccc(C(F)(F)F)cn3)Cc3cnccn3)c(F)cc2nc1N [Example 315]" readout_kind=Ki measured_value=0.25
compound="Cc1cc2cc(C(=O)N(Cc3ncc(C(F)(F)F)s3)[C@H](C)c3ncccn3)ccc2nc1N (single isomer, unassigned) [Example 492]" readout_kind=Ki measured_value=0.22
compound="C[C@H](c1ncccn1)N(Cc1ccc(C(F)F)cn1)C(=O)c1ccc2nc(N)c(Br)cc2c1 [Example 410]" readout_kind=Ki measured_value=0.04
compound="Cc1cnc(CN(Cc2ccc(C(F)(F)F)cn2)C(=O)c2ccc3nc(N)c(C)cc3c2)cn1 [Example 337]" readout_kind=Ki measured_value=0.39
compound="Cc1cc2cc(C(=O)N(Cc3ccc(C(F)(F)F)cn3)C[C@H](C)C(F)(F)F)ccc2nc1N [Example 458]" readout_kind=Ki measured_value=0.84

----------
Test system: HCT116 MTAP null cells
Test: HCT116 proliferation assay, MTAP null cells (CellTiter-Glo, 6 days)
Assay type: cell-based
Conditions: HCT116-MTAP null, 144 h, read-out: Protif_ HCT116-MTAP null IC50
pIC50: −log10 of the molar value.
readout.kind: pIC50

compound="Cc1cc2cc(C(=O)N(Cc3ccc(C(F)(F)F)cn3)C3CCCc4[nH]ccc43)ccc2nc1N (stereo not drawn)" readout_kind=pIC50 measured_value=6.50
compound="Cc1cc2cc(C(=O)N(Cc3ccc(C#N)cn3)[C@@H]3CCOc4cccnc43)ccc2nc1N (single isomer, unassigned)" readout_kind=pIC50 measured_value=7.21
compound="Cc1cc2cc(C(=O)N(Cc3ccc(C(F)(F)F)cn3)CC3CCc4[nH]cnc4C3)ccc2nc1N (stereo not drawn)" readout_kind=pIC50 measured_value=6.54
compound=Cc1cc2cc(C(=O)N(Cc3ccccc3O)Cc3ccnc4[nH]ccc34)ccc2nc1N readout_kind=pIC50 measured_value=7.03
compound=Cc1cc2cc(C(=O)N(Cc3ccc(C(F)(F)F)cn3)Cc3cnccn3)c(F)cc2nc1N readout_kind=pIC50 measured_value=6.74
compound=N#CC[C@@H](C1CC1)N(Cc1ccc(C#N)cn1)C(=O)c1ccc2nc(N)c(Br)cc2c1 readout_kind=pIC50 measured_value=6.71
compound=Cc1cc2cc(C(=O)N(Cc3ccc(C#N)cn3)[C@H](C)c3ncccc3F)c(F)cc2nc1N readout_kind=pIC50 measured_value=7.14
compound="Cc1cc2cc(C(=O)N(Cc3ccc(C(F)(F)F)nn3)[C@@H]3CCOc4cccnc43)ccc2nc1N (single isomer, unassigned)" readout_kind=pIC50 measured_value=7.62
compound="Cc1cc2cc(C(=O)N(Cc3ccc(Br)c(C)n3)[C@H](C)c3ncccn3)ccc2nc1N (single isomer, unassigned)" readout_kind=pIC50 measured_value=7.62
